test system: HL-60(TB) leukemia; test: NCI-60 one-dose screen, 48 h (100 = growth as untreated, 0 = no growth, -100 = all killed); conditions: 10 µM unless noted
This is part of a sample that, as a whole, favours compounds with a hit. Of some 83,000 tested, about 20% had one in any assay.
METRIC NAME: growth (%)
Your answer should be a plain number; it is taken to be in %.

{"MOLECULE": "O=C1NC(=O)/C(=C\\c2ccncc2)N1", "QUANTITY UNIT": "%", "growth": 119}

Sample CCCc1cc(=O)oc2c3c(c4c(c12)OC(C)(C)CC4)OC(C)[C@H](C)[C@@H]3O (stereo partly specified) — what was its growth?
109

Record: "Nc1nc2ccc([C@@H]3Nc4ccc5[nH]ncc5c4[C@H]4[C@H]5CCC(C5)[C@H]43)cc2s1"
12.4

----------
test system: KM12 colon; assay: NCI-60 one-dose screen, 48 h (100 = growth as untreated, 0 = no growth, -100 = all killed); settings: 10 µM unless noted
Compounds without any hit were thinned out: in the full panel of roughly 83,000, 20% have a hit.
METRIC NAME: growth (%)
Your answer should be a plain number; it is taken to be in %.

Solved entries (count: 8):
{"COMPOUND": "Oc1ccccc1OB(Oc1ccccc1O)N(CCCl)CCCl", "ASSAYED SYSTEM": "KM12 colon", "QUANTITY UNIT": "%", "growth": 69.4}
{"COMPOUND": "OC1(c2ccc(Cl)cc2Cl)c2ccccc2C2=NCCN21 (stereo not drawn)", "ASSAYED SYSTEM": "KM12 colon", "QUANTITY UNIT": "%", "growth": 101}
{"COMPOUND": "C[C@@H]1O[C@@H](O[C@H]2CC[C@@]3(C)[C@H](CCC4[C@@H]3C(O)C[C@]3(C)[C@@H](c5ccc(=O)oc5)CC[C@]43O)C2)[C@H](O)[C@H](O)[C@H]1O (stereo partly drawn)", "ASSAYED SYSTEM": "KM12 colon", "QUANTITY UNIT": "%", "growth": -94.2}
{"COMPOUND": "COc1cc(C2(C#N)CCN(C)CC2)cc(OC)c1OC", "ASSAYED SYSTEM": "KM12 colon", "QUANTITY UNIT": "%", "growth": 100}
{"COMPOUND": "Nc1ccc(N)c2c1Oc1ccccc1O2", "ASSAYED SYSTEM": "KM12 colon", "QUANTITY UNIT": "%", "growth": 97.3}
{"COMPOUND": "COC(C)(C)CCC[C@H](C)C/C=C/C(C)=C/C(=O)OC(C)C", "ASSAYED SYSTEM": "KM12 colon", "QUANTITY UNIT": "%", "growth": 107}
{"COMPOUND": "COC1=CC(=O)OC(CCc2ccc3c(c2)OCO3)C1 (stereo not drawn)", "ASSAYED SYSTEM": "KM12 colon", "QUANTITY UNIT": "%", "growth": 109}
{"COMPOUND": "O=CN1N=C(c2ccc3c(c2)OCO3)CC1c1sc(N(CCCl)CCCl)nc1Cl (stereo not drawn)", "ASSAYED SYSTEM": "KM12 colon", "QUANTITY UNIT": "%", "growth": 93.9}

Can you look up growth on KM12 colon for CC(=O)O[C@H]1C[C@H](O[C@H]2[C@@H](O)C[C@H](O[C@H]3[C@@H](O)C[C@H](O[C@H]4CC[C@@]5(C)C(CCC6C5C[C@@H](O)[C@]5(C)[C@@H](C7=CC(=O)OC7)CC[C@]65O)C4)O[C@@H]3C)O[C@@H]2C)O[C@H](C)[C@H]1O[C@@H]1O[C@H](CO)[C@@H](O)[C@H](O)[C@H]1O (stereo partly drawn) ?
-100

Record: "CC1(C)N=C(N)N=C(N)N1c1ccc(CCCCc2ccc(Cl)cc2S(=O)(=O)F)c(Cl)c1"
15.7

Record: "CCN1CC2(CN(CC)C1=S)C(=O)NC(=O)NC2=O"
94.1

Record: CC(C)(C)NCC(O)c1ccccc1Cl (stereo not drawn)
3.52

Record: "CO[C@@H]1[C@H](OC(=O)NC(=O)CCl)CC[C@]2(CO2)[C@H]1[C@@]1(C)O[C@@H]1CC=C(C)C"
36.3

Record: "Cc1cc(NC(=O)/C=C/c2ccc([N+](=O)[O-])cc2)ccc1S(=O)(=O)F"
97

Record: "S=P(Nc1ccccc1)(Nc1ccccc1)c1ccccc1"
102

Record: Cc1ccc2oc(=O)c3c(c2c1)OC(N)=C(C#N)C3c1ccco1 (stereo not drawn)
98.9

Record: "CC(C)(O)/C=C/C(=O)[C@](C)(O)[C@H]1[C@H](O)C[C@@]2(C)[C@@H]3CC=C4[C@@H](C=C(O)C(=O)C4(C)C)[C@]3(C)C(=O)C[C@]12C"
-60.9

Record: "CCC[CH2][Sn]1([CH2]CCC)[O]C(=O)c2cccc([N+](=O)[O-])c2C(=O)[O]1"
-83.9
